FYI, the data here is from ChEMBL document CHEMBL1143429.

system: Staphylococcus aureus; test: Antibacterial activity against Staphylococcus aureus ATCC 25923 by microdilution method; assay type: functional
Doc: threshold 4 µg/mL (exclusive). Items with MIC beneath it return 1; others return 0.

[
  {
    "MOLECULE": "O=c1[nH]c2c(c(=O)[nH]1)C(c1cccc([N+](=O)[O-])c1)c1c(-c3ccccc3)nn(-c3ccc([N+](=O)[O-])cc3)c1N2 (configuration not stated)",
    "LABEL": 1
  }
]

For this molecule, is MIC lower than 4 µg/mL? O=c1[nH]c(=S)[nH]c2c1C(c1ccccc1)c1c(-c3ccccc3)nn(-c3ccccc3)c1N2 (configuration not stated)
0

For this molecule, is MIC lower than 4 µg/mL? O=c1[nH]c2c(c(=O)[nH]1)C(c1ccc(Cl)cc1)c1c(-c3ccccc3)nn(-c3ccccc3)c1N2 (configuration not stated)
0

For this molecule, is MIC lower than 4 µg/mL? Cc1ccc(C2c3c(-c4ccccc4)nn(-c4ccccc4)c3Nc3[nH]c(=O)[nH]c(=O)c32)cc1 (configuration not stated)
1

For this molecule, is MIC lower than 4 µg/mL? Cc1ccc(C2c3c(-c4ccccc4)nn(-c4ccc([N+](=O)[O-])cc4)c3Nc3[nH]c(=O)[nH]c(=O)c32)cc1 (configuration not stated)
1

For this molecule, is MIC lower than 4 µg/mL? O=c1[nH]c(=S)[nH]c2c1C(c1ccc([N+](=O)[O-])cc1)c1c(-c3ccccc3)nn(-c3ccc([N+](=O)[O-])cc3)c1N2 (configuration not stated)
0

For this molecule, is MIC lower than 4 µg/mL? O=c1[nH]c2c(c(=O)[nH]1)C(c1ccccc1)c1c(-c3ccccc3)nn(-c3ccccc3)c1N2 (configuration not stated)
1

For this molecule, is MIC lower than 4 µg/mL? O=c1[nH]c(=S)[nH]c2c1C(c1ccc(Cl)cc1)c1c(-c3ccccc3)nn(-c3ccc([N+](=O)[O-])cc3)c1N2 (configuration not stated)
0
